Assign % of Baclofen Released to each entry below.
particulars: human, plasma, 1 h, 2 µM
Give bare numbers, in %.

State the recorded % of Baclofen Released for every item in the following list.
1. O=C([O-])C[C@@H](CNC(=O)OCOC(=O)c1cccs1)c1ccc(Cl)cc1.[Na+]
2. CCC[C@H](OC(=O)NC[C@H](CC(=O)[O-])c1ccc(Cl)cc1)OC(=O)C(C)C.[Na+]
3. CC(C)C(=O)O[C@H](C)OC(=O)NC[C@H](CC(=O)[O-])c1ccc(Cl)cc1.[Na+]
4. CCOC(C)(OCC)C(=O)OCOC(=O)NC[C@H](CC(=O)[O-])c1ccc(Cl)cc1.[Na+]
5. CC(C)C(=O)O[C@H](OC(=O)NC[C@H](CC(=O)[O-])c1ccc(Cl)cc1)C(C)C.[Na+]

// result
14
2
2
50
3
